Test system: compound-treated mice
Test: Neuropharmacological assay (SmartCube): behavioral activity signature and minimal effective dose
Format: in vivo
Conditions: Mus musculus, ip, MED = dose having 50% or more total activity, read-out: Potency: minimal effective dose (MED), binned
attribute measured: minimal effective dose

CC[C@H]1OCc2ccc(C)cc2[C@H]1N (single isomer, unassigned) | 3 to 10 mg/kg
CC[C@H]1OCc2cccc(Cl)c2[C@@H]1N.Cl (single isomer, unassigned) | 3 to 10 mg/kg
Cc1ccc2c(c1)CO[C@H](C)[C@H]2N | < 3 mg/kg
Cc1cccc2c1[C@H](C)OC[C@@H]2N | 10 to 30 mg/kg

Could you share which minimal effective dose value was measured for CC[C@H]1OCc2ccccc2[C@@H]1N(C)C.Cl (single isomer, unassigned) ? 10 to 30 mg/kg

###

Tested on: compound-treated mice
Test: Neuropharmacological assay (SmartCube): behavioral activity signature and minimal effective dose
Format: in vivo
Conditions: Mus musculus, ip, MED = dose having 50% or more total activity, read-out: Potency: minimal effective dose (MED), binned
Source text: Neurosci. 2011 Sep. 9; 5:103 (doi: 10.3389/fnins.2011.00103) (“Roberds”). […] To facilitate testing of multiple compounds for behavioral effects relevant to psychiatric disease, PsychoGenics, Inc. (Tarrytown, N.Y., “PGI”) developed SmartCube™, an automated system in which behaviors of compound-treated mice are captured by digital video and analyzed with computer algorithms. […] where LOQ is the limit of quantification. […]
Consider the following compounds; for each one, report its minimal effective dose.

As a guide, the following entries are already answered.
Cc1cc2c(cc1C)[C@H](N)[C@@H](C)OC2.Cl | 10 to 30 mg/kg
CC[C@@H]1OCc2cccc(C)c2[C@@H]1N.Cl | 3 to 10 mg/kg
COc1ccc2c(c1)[C@@H](N)[C@H](C)OC2 (single isomer, unassigned) | 10 to 30 mg/kg
C#CCN[C@H]1c2ccccc2CO[C@H]1C.Cl | 3 to 10 mg/kg
CC[C@@H]1OCc2ccccc2[C@@H]1N(C)C.Cl (single isomer, unassigned) | 3 to 10 mg/kg
C[C@H]1OCc2cccc(Cl)c2[C@@H]1N | 3 to 10 mg/kg
Cc1ccc2c(c1)[C@H](N)[C@@H](C(C)C)OC2 | 3 to 10 mg/kg
C#CCN[C@H]1c2ccccc2CO[C@@H]1C.Cl | < 3 mg/kg

Now consider the entry below.
Could you share which minimal effective dose value was measured for CCN(C)C(=O)Oc1ccc2c(c1)[C@H](N)[C@H](C)OC2.Cl ? > 30 mg/kg

###

Test system: compound-treated mice
Experiment: Neuropharmacological assay (SmartCube): behavioral activity signature and minimal effective dose
Assay type: in vivo
Details: Mus musculus, ip, MED = dose having 50% or more total activity, read-out: Potency: minimal effective dose (MED), binned
Structures can show the parent of a compound that is named as a salt.
attribute measured: minimal effective dose

As a guide, the following entries are already answered.
CC(C)[C@@H]1OCc2ccccc2[C@@H]1N (relative stereo) [Example 256, hydrochloride] | 3 to 10 mg/kg
Cc1ccc2c(c1)[C@@H](N)[C@@H](C)OC2 (single isomer, unassigned) | 3 to 10 mg/kg
C[C@@H]1OCc2c(F)cccc2[C@@H]1N.Cl | 3 to 10 mg/kg

Quick one: give me minimal effective dose for each item below, same order please.
1. CC[C@H]1OCc2ccccc2[C@H]1N (single isomer, unassigned)
2. CN[C@@H]1CO[C@@H](C)c2ccccc21 (relative stereo) [Example 236, hydrochloride]
3. COc1ccc2c(c1)CO[C@H](C)[C@H]2N.Cl

1: < 3 mg/kg; 2: 3 to 10 mg/kg; 3: 10 to 30 mg/kg

Quick one: give me minimal effective dose for each item below, same order please.
1. CCC[C@@H]1OCc2ccccc2[C@@H]1N
2. CCN(C)C(=O)Oc1ccc2c(c1)COCC2N(C)C.Cl (stereo not drawn)
3. C[C@@H]1OC[C@@H](N)c2cc(Cl)ccc21.Cl

3 to 10 mg/kg
3 to 10 mg/kg
3 to 10 mg/kg
